Each entry below lists one item and its recorded IC50 CD23 value.
Target: recombinant human IL-13 (human, UniProt P35225 35-146)
Sequence (P35225 35-146 limits assumed): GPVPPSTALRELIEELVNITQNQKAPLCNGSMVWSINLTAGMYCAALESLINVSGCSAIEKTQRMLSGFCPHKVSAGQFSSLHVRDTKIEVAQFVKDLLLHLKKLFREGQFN
Test: cell-based or functional assay
Report only the number, with the unit nM understood.

Use the examples below as a reference point.
1) BDG38.090 (antibody, V domains shown, IgG1) VH: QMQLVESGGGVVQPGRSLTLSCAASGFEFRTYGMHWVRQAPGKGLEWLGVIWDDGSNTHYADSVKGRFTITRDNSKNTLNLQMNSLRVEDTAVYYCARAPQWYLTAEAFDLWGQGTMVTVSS VL: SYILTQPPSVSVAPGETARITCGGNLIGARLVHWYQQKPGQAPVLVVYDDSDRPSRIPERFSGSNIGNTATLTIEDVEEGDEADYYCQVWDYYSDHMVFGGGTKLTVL | 0.00656
2) BDG38.117 (antibody, V domains shown, IgG1) VH: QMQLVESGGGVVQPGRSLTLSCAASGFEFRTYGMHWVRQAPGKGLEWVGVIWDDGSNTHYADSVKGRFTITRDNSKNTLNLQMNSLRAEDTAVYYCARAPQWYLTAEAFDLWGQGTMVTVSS VL: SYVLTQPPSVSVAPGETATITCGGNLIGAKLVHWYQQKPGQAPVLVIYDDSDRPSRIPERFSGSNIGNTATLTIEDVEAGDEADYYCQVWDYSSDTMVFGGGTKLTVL | 0.121

// below: IC50 CD23 requested for another binder
QUERY: Requested read-out: IC50 CD23. Entry: BDG38.112 (antibody, V domains shown, IgG1) VH: QMQLVESGGGVVQPGRSLRLSCAASGFEFRTYGMHWVRQAPGKGLEWLGVIWYDGSNTHYADSVKGRFTITRDNSKNTLNLQMNSLRAEDTAVYYCVRAPQWYLTAEAFDLWGQGTMVTVSS VL: SYILTQPPSVSVAPGQTATITCGGNLIGARLVHWYQQKPGQAPVLVIYDDSDRPSRIPERFSGSNIGNTATLTIERVEEGDEADYYCQVWDYSSDTYVFGGGTKLTVL
RESULT: 0.0594
